The reader will find reported pKd values listed item by item below.
target: T1, AFP158/HLA-A*02:01 complex (human); assay: SPR, crude scFv captured, pMHC analyte;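 also: complex injected at several concentrations over the chip, association phase then running buffer for dissociation, KD derived from on- and off-rates computed from both curves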
T1 construct: flowed as analyte in SPR
Hey, just a heads up that pKd is the negative log base 10 of the concentration in molar.

These solved cases illustrate the format of a correct answer.
>  <binder>
AS170036 VL1VH1-56N98I108D (scFv, also called 53-AS170036 VL1VH1-56N98I108D) scFv: QSALTQPRSVSGSPGQSVTISCAGTSSDVGSENYVSWYQQHPGKAPKLMIYQVNKRASGVPDRFSGSKSGNTASLTISGLQAEDEADYYCASYRSSDINIVFGGGTKLTVLGGGGSGGGGSGGGGSEVQLVESGGGLVQPGGSLRLSCAASGFTFSSYAMSWVRQAPGKGLEWVSTINSGTNSPYYADSVKGRFTISRDNSKNTLYLQMNSLRAEDTAVYYCAKNFFDGSWFLDPPAMDYWGQGTLVTVSSHHHHHH

>  <pKd>
8.29

$$$$
>  <binder>
AS170036 VL1VH1-57M98F108S (scFv, also called 78-AS170036 VL1VH1-57M98F108S) scFv: QSALTQPRSVSGSPGQSVTISCAGTSSDVGSENYVSWYQQHPGKAPKLMIYQVNKRASGVPDRFSGSKSGNTASLTISGLQAEDEADYYCASYRSSDFNIVFGGGTKLTVLGGGGSGGGGSGGGGSEVQLVESGGGLVQPGGSLRLSCAASGFTFSSYAMSWVRQAPGKGLEWVSTINSGTGMPYYADSVKGRFTISRDNSKNTLYLQMNSLRAEDTAVYYCAKNFFDGSWFLSPPAMDYWGQGTLVTVSSHHHHHH

>  <pKd>
7.89

$$$$
>  <binder>
AS170036 VL1VH1-56N98F108S (scFv, also called 51-AS170036 VL1VH1-56N98F108S) scFv: QSALTQPRSVSGSPGQSVTISCAGTSSDVGSENYVSWYQQHPGKAPKLMIYQVNKRASGVPDRFSGSKSGNTASLTISGLQAEDEADYYCASYRSSDFNIVFGGGTKLTVLGGGGSGGGGSGGGGSEVQLVESGGGLVQPGGSLRLSCAASGFTFSSYAMSWVRQAPGKGLEWVSTINSGTNSPYYADSVKGRFTISRDNSKNTLYLQMNSLRAEDTAVYYCAKNFFDGSWFLSPPAMDYWGQGTLVTVSSHHHHHH

>  <pKd>
7.89

$$$$
>  <binder>
AS170036 VL1VH1-57H98Q108D (scFv, also called 65-AS170036 VL1VH1-57H98Q108D) scFv: QSALTQPRSVSGSPGQSVTISCAGTSSDVGSENYVSWYQQHPGKAPKLMIYQVNKRASGVPDRFSGSKSGNTASLTISGLQAEDEADYYCASYRSSDQNIVFGGGTKLTVLGGGGSGGGGSGGGGSEVQLVESGGGLVQPGGSLRLSCAASGFTFSSYAMSWVRQAPGKGLEWVSTINSGTGHPYYADSVKGRFTISRDNSKNTLYLQMNSLRAEDTAVYYCAKNFFDGSWFLDPPAMDYWGQGTLVTVSSHHHHHH

>  <pKd>
8.60

$$$$

Problem: Look at this binder and give its reported pKd. AS170036 VL1VH1-57M98I108A (scFv, also called 79-AS170036 VL1VH1-57M98I108A) scFv: QSALTQPRSVSGSPGQSVTISCAGTSSDVGSENYVSWYQQHPGKAPKLMIYQVNKRASGVPDRFSGSKSGNTASLTISGLQAEDEADYYCASYRSSDINIVFGGGTKLTVLGGGGSGGGGSGGGGSEVQLVESGGGLVQPGGSLRLSCAASGFTFSSYAMSWVRQAPGKGLEWVSTINSGTGMPYYADSVKGRFTISRDNSKNTLYLQMNSLRAEDTAVYYCAKNFFDGSWFLAPPAMDYWGQGTLVTVSSHHHHHH
Result: 8.09

Problem: Follow-up item: AS170036 VL1VH1-56N98Q108D (scFv, also called 56-AS170036 VL1VH1-56N98Q108D) scFv: QSALTQPRSVSGSPGQSVTISCAGTSSDVGSENYVSWYQQHPGKAPKLMIYQVNKRASGVPDRFSGSKSGNTASLTISGLQAEDEADYYCASYRSSDQNIVFGGGTKLTVLGGGGSGGGGSGGGGSEVQLVESGGGLVQPGGSLRLSCAASGFTFSSYAMSWVRQAPGKGLEWVSTINSGTNSPYYADSVKGRFTISRDNSKNTLYLQMNSLRAEDTAVYYCAKNFFDGSWFLDPPAMDYWGQGTLVTVSSHHHHHH
Result: 8.24

Problem: Also need AS170036 VL1VH1-56Y98F108A (scFv, also called 40-AS170036 VL1VH1-56Y98F108A) scFv: QSALTQPRSVSGSPGQSVTISCAGTSSDVGSENYVSWYQQHPGKAPKLMIYQVNKRASGVPDRFSGSKSGNTASLTISGLQAEDEADYYCASYRSSDFNIVFGGGTKLTVLGGGGSGGGGSGGGGSEVQLVESGGGLVQPGGSLRLSCAASGFTFSSYAMSWVRQAPGKGLEWVSTINSGTYSPYYADSVKGRFTISRDNSKNTLYLQMNSLRAEDTAVYYCAKNFFDGSWFLAPPAMDYWGQGTLVTVSSHHHHHH , thanks.
Result: 8.80

Problem: Next record, please: AS170036 VL1VH1-57K98I108A (scFv, also called 70-AS170036 VL1VH1-57K98I108A) scFv: QSALTQPRSVSGSPGQSVTISCAGTSSDVGSENYVSWYQQHPGKAPKLMIYQVNKRASGVPDRFSGSKSGNTASLTISGLQAEDEADYYCASYRSSDINIVFGGGTKLTVLGGGGSGGGGSGGGGSEVQLVESGGGLVQPGGSLRLSCAASGFTFSSYAMSWVRQAPGKGLEWVSTINSGTGKPYYADSVKGRFTISRDNSKNTLYLQMNSLRAEDTAVYYCAKNFFDGSWFLAPPAMDYWGQGTLVTVSSHHHHHH
Result: 8.37

Problem: Also AS170036 VL1VH1-56Y98I108D (scFv, also called 44-AS170036 VL1VH1-56Y98I108D) scFv: QSALTQPRSVSGSPGQSVTISCAGTSSDVGSENYVSWYQQHPGKAPKLMIYQVNKRASGVPDRFSGSKSGNTASLTISGLQAEDEADYYCASYRSSDINIVFGGGTKLTVLGGGGSGGGGSGGGGSEVQLVESGGGLVQPGGSLRLSCAASGFTFSSYAMSWVRQAPGKGLEWVSTINSGTYSPYYADSVKGRFTISRDNSKNTLYLQMNSLRAEDTAVYYCAKNFFDGSWFLDPPAMDYWGQGTLVTVSSHHHHHH ?
Result: 8.82

Numbers sourced from patent US20240279318A1.
